# System: rat chronic carcinogenicity bioassay, TD50
# measurement.description: DSSTox (CPDBAS) Carcinogenic Potency Database Summary Rat Bioassay Results
# assay.context: TD50_Rat_Note: TD50 is harmonic mean of more than one positive test; TargetSites_Rat_Female: clitoral gland; ear Zymbals gland; large intestine; liver; nervous system; small intestine; active compounds read low
metric: Potency

Return reported Potency; argument: Cc1cccn2c1nc1ccc(N)nc12
4.69 mg/kg/day

---

# Potency values compiled below
# Tested on: rat chronic carcinogenicity bioassay, TD50
# measurement.description: DSSTox (CPDBAS) Carcinogenic Potency Database Summary Rat Bioassay Results
# assay.context: TD50_Rat_Note: TD50 is harmonic mean of more than one positive test; TargetSites_Rat_Female: uterus; active compounds read low

compound=FC(F)(F)CCl metric=Potency result="87.3 mg/kg/day"

Switching to the query record.
Return reported Potency; argument: O=C1C2CC=CCC2C(=O)N1SC(Cl)(Cl)Cl (configuration not stated)
2080 mg/kg/day

Measured values drawn from PubChem BioAssay AID1208 for this set.
